# assay.protocol: E. coli acrAB mutant growth effects, primary screen, E. coli filamentation inducers, strain DRC39, OD650, 24 h (AID 1178);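 also: growth measured as culture turbidity by optical density at 650 nm; test concentration not given here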
# condition.info: higher = more signal, called active from +8 up or from −8 down
# thresholds on z-score define classes: range 1: < 0.02; range 2: ≥ 0.02 and < 0.5; range 3: ≥ 0.5

CN(C)CCCC[C@@H]1NC(=O)[C@H]2C[C@@H](C(=O)NCc3ccc(F)cc3)[C@@H](c3ccc(O)cc3)N2C1=O :: range 2
COc1ccc(C#Cc2ccc3c(c2)[C@]2(C(=O)N3)[C@H](C(=O)Nc3nc4ccccc4s3)[C@H]3C(=O)O[C@H](c4ccccc4)[C@H](c4ccccc4)N3[C@@H]2c2ccc(OCCO)cc2)cc1 :: range 3
O=C1NC(=O)C2C1C=CC(C(O)c1cccc(O)c1)N2Nc1ccc(Cl)cc1Cl (stereo not drawn) :: range 1
C=CCN1C(=O)[C@]2(O[C@H](CCO)[C@@H]([Si](C)(C)c3ccc(OC)cc3)[C@@H]2C)c2ccccc21 :: range 1
CO[C@H]1O[C@H](CO)[C@@H](OC(=O)Nc2ccc3c(c2)OCO3)[C@@H]2OC(=O)[C@@H](Cc3ccccc3)C/C=C/C[C@H](Cc3ccccc3)C(=O)O[C@@H]12 :: range 2
CC(C)(C)N1CC=CC23O[C@@H]4/C=C\CCCOC(=O)C4[C@H]2C(=O)N(CCCCCCO)[C@@H]3C1=O (stereo partly drawn) :: range 1
CCN(CC)c1ccc(N2CC=CC34O[C@@H]5C=CCOC(=O)[C@@H]5[C@H]3C(=O)N(CCCO)[C@@H]4C2=O)cc1 (stereo partly drawn) :: range 3
Cc1ccc(S[C@]2(C(=O)NCCCN(C)C)CC(=O)N(Cc3ccccc3Cl)[C@@H]2c2ccc(CO)cc2I)cc1 :: range 2
COCCOC(=O)N1C(=O)[C@@]2(c3cc(C#CCCO)ccc31)[C@H](c1ccc(O)cc1)N1[C@H](c3ccccc3)[C@H](c3ccccc3)OC(=O)[C@H]1[C@@H]2C(=O)N1CCc2cc(OC)c(OC)cc2C1 :: range 3
CN(C)CCCCNC(=O)[C@H]1C[C@H]2C(=O)NCC(=O)N2[C@H]1c1cccc(OCCO)c1 :: range 3

State the class of the compound shown: CCCCC(=C=CC[C@@H](O)c1cccc(OCCO)c1)C[C@@H](O)COCc1ccccc1
range 3

Another compound to look at: COCCOC(=O)N1C(=O)[C@@]2(c3cc(C#CC4=CCCCC4)ccc31)[C@H](c1ccc(OCCO)cc1)N1[C@H](c3ccccc3)[C@H](c3ccccc3)OC(=O)[C@H]1[C@@H]2C(=O)N1CCCCCCC1
range 1

Another compound to look at: CCCCC(=C=CC[C@@H](O)c1cccc(OCCO)c1)CCO
range 3

Another compound to look at: [N-]=[N+]=Nc1ccccc1[C@@H]1OC(c2ccc(OCCCO)cc2)=N[C@]1(Cc1ccccc1)C(N)=O
range 3

Another compound to look at: COc1ccc([Si](C)(C)[C@H]2[C@H](CCn3cc([C@H](O)c4ccccc4)nn3)O[C@@]3(C(=O)N(c4ccccc4)c4ccccc43)[C@@H]2C)cc1
range 2

Another compound to look at: CN(C)C(=O)[C@]1(Cc2ccccc2)N=C(c2ccc(OCCCO)cc2)O[C@@H]1c1ccccc1
range 1

Another compound to look at: CCCC[C@H]1OB(O)C[C@H]2C1=C(COC)C[C@H]1C(=O)C=CC(=O)[C@H]12
range 3

Another compound to look at: CC1CC/C=C\[C@H]2OC34C=CCN(c5ccc(Cl)cc5)C(=O)[C@H]3N(CCCO)C(=O)[C@]4(C)C2C(=O)O1 (stereo partly drawn)
range 1
